Entries annotated with measured glycan array binding signal (z-score)
measurementTarget: Fuc(a1-2)[GalNAc(a1-3)]Gal(b1-3)GlcNAc(b1-2)Man(a1-3)[Fuc(a1-2)[GalNAc(a1-3)]Gal(b1-3)GlcNAc(b1-2)Man(a1-6)]Man(b1-4)GlcNAc(b1-4)GlcNAc
assayMethodText: glycan array binding signal (z-score within array); higher = stronger binding
studyConditions: glycan notation: IUPAC condensed, linker removed
This is one part of a sample in which the strongest signals are shown more often than they occur.

The cases that follow already have their glycan array binding signal (z-score) on record.
[[record]]
binder = "Actd5 (Actinidia), P84527 (protein) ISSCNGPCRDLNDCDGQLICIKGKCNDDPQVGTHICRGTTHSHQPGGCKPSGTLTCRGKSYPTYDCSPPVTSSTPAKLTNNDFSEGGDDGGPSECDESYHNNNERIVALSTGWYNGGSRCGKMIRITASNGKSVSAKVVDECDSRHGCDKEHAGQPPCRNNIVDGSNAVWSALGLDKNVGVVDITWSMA"
endpointlabel = "glycan array binding signal (z-score)"
observedresult = 0.017

[[record]]
binder = "Arath Fbox LD (Arabidopsis thaliana) (protein) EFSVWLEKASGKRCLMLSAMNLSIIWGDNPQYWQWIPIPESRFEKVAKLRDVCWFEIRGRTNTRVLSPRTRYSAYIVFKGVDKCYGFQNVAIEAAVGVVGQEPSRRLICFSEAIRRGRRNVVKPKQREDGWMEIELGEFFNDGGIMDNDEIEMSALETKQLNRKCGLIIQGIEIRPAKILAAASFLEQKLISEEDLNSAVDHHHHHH"
endpointlabel = "glycan array binding signal (z-score)"
observedresult = -0.597

[[record]]
binder = "cFel (Cyprinus carpio), P68512 (protein) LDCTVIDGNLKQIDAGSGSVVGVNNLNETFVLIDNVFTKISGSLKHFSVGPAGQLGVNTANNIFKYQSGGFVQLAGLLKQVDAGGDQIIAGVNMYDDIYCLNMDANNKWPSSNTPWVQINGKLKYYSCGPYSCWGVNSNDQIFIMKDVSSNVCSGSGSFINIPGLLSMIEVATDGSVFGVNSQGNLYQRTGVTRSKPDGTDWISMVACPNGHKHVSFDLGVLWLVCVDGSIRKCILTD"
endpointlabel = "glycan array binding signal (z-score)"
observedresult = 0.309

[[record]]
binder = "HML-Native (Hypnea musciformis), P84871 (protein) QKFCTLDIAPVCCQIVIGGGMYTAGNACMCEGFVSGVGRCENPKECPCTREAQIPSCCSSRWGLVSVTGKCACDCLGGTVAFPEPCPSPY"
endpointlabel = "glycan array binding signal (z-score)"
observedresult = -0.093

[[record]]
binder = "CFEM-PPl (Pichia pastoris), F2QPV1 (protein) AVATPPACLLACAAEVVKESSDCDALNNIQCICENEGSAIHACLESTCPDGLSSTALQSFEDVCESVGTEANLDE"
endpointlabel = "glycan array binding signal (z-score)"
observedresult = -0.271

[[record]]
binder = "KISKRILTGKK [NK11 (Sus scrofa)]"
endpointlabel = "glycan array binding signal (z-score)"
observedresult = -0.032

[[record]]
binder = "Sp8391B-bot-388-20-388 (Bacteroides ovatus) (protein) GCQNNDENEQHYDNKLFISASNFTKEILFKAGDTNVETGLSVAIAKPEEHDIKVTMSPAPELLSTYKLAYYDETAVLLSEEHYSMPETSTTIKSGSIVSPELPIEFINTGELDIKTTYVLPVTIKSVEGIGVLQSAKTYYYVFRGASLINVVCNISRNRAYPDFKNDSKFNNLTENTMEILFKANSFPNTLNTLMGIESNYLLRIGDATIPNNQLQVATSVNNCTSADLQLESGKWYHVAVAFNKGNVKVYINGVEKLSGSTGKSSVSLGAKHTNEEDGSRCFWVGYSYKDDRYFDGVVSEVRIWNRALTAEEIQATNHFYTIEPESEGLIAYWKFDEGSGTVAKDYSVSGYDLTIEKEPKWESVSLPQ"
endpointlabel = "glycan array binding signal (z-score)"
observedresult = 0.439

[[record]]
binder = "EULS2 M1 (Oryza sativa) (protein) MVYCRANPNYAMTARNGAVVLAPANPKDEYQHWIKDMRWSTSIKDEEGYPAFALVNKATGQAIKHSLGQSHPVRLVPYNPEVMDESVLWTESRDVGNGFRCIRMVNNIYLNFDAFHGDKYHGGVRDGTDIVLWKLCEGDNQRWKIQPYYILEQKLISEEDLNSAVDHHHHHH"
endpointlabel = "glycan array binding signal (z-score)"
observedresult = 3.99


(Q) I am curious: what glycan array binding signal (z-score) value has been reported for PpFlo2 (Pichia pastoris) (protein) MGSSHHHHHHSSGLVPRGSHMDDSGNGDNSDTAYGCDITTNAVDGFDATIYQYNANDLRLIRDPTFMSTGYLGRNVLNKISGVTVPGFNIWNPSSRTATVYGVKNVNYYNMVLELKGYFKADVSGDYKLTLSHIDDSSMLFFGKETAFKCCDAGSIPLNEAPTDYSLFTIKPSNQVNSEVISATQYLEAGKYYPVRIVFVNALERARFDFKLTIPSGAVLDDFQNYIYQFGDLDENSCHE ?
(A) -0.287
